Endpoint Label: log10 GI50 (log10 of the value in nM)
Log scale reminder: GI50 in nM, then log10 taken.

Recall the reported log10 GI50 of COc1ccc(Oc2ccccc2NC(=O)CNC(=O)c2cccc3ccccc23)cc1 when tested on HT29. 2.76

Recall the reported log10 GI50 of O=C(CNC(=O)c1cccc2ccccc12)Nc1ccccc1Oc1ccc(O)cc1 when tested on HT29. 3.00

Recall the reported log10 GI50 of O=C(CNC(=O)c1cccc2ccccc12)Nc1ccccc1Oc1ccccc1 when tested on HT29. 2.46

Recall the reported log10 GI50 of O=C(CNC(=O)c1cccc2ccccc12)Nc1ccccc1Oc1cccc(O)c1 when tested on HT29. 4.33

Recall the reported log10 GI50 of COc1cccc(Oc2ccccc2NC(=O)CNC(=O)c2cccc3ccccc23)c1 when tested on HT29. 2.04

---

Endpoint Label: log10(GI50) (log10 of the value in µM)
Log scale reminder: GI50 in µM, then log10 taken.

Recall the reported log10(GI50) of O=C(CNC(=O)c1cccc2ccccc12)Nc1ccccc1Oc1ccc(O)cc1 [PCNA1] when tested on NCI-H226. 0.68

Recall the reported log10(GI50) of O=C(CNC(=O)c1cccc2ccccc12)Nc1ccccc1Oc1ccccc1 [AOH1160] when tested on NCI-H226. 0.34

Recall the reported log10(GI50) of COc1cccc(Oc2ccccc2NC(=O)CNC(=O)c2cccc3ccccc23)c1 [PCNA7/ AOH1996] when tested on NCI-H226. 0.40

Recall the reported log10(GI50) of COc1ccc(Oc2ccccc2NC(=O)CNC(=O)c2cccc3ccccc23)cc1 [PCNA6] when tested on NCI-H226. 0.63

Recall the reported log10(GI50) of O=C(CNC(=O)c1cccc2ccccc12)Nc1ccccc1Oc1cccc(O)c1 [PCNA2] when tested on NCI-H226. 1.40

---

Tested on: UO-31
Endpoint Label: GI50 (nM)
Reply numerically in nM, unit not repeated.

Recall the reported GI50 of O=C(CNC(=O)c1cccc2ccccc12)Nc1ccccc1Oc1cccc(O)c1 [PCNA2] when tested on UO-31. 16600

Recall the reported GI50 of O=C(CNC(=O)c1cccc2ccccc12)Nc1ccccc1Oc1ccc(O)cc1 [PCNA1] when tested on UO-31. 1780

Recall the reported GI50 of O=C(CNC(=O)c1cccc2ccccc12)Nc1ccccc1Oc1ccccc1 [AOH1160] when tested on UO-31. 646

Recall the reported GI50 of COc1ccc(Oc2ccccc2NC(=O)CNC(=O)c2cccc3ccccc23)cc1 [PCNA6] when tested on UO-31. 1480

Recall the reported GI50 of COc1cccc(Oc2ccccc2NC(=O)CNC(=O)c2cccc3ccccc23)c1 [PCNA7/ AOH1996] when tested on UO-31. 1820

---

Test system: DU-145
Protocol Description: AOH1160 IC50 in additional cancer cell lines (Table 4)
Format: cell-based
Experimental Conditions: Homo sapiens; DU-145, Prostate
Endpoint Label: IC50

Provide one value: measured IC50 of O=C(CNC(=O)c1cccc2ccccc12)Nc1ccccc1Oc1ccccc1 [AOH1160] 200 nM

---

Endpoint Label: GI50 (nM)
Reply numerically in nM, unit not repeated.

Recall the reported GI50 of O=C(CNC(=O)c1cccc2ccccc12)Nc1ccccc1Oc1ccc(O)cc1 when tested on TK-10. 17000

Recall the reported GI50 of O=C(CNC(=O)c1cccc2ccccc12)Nc1ccccc1Oc1cccc(O)c1 when tested on TK-10. 25100

Recall the reported GI50 of COc1ccc(Oc2ccccc2NC(=O)CNC(=O)c2cccc3ccccc23)cc1 when tested on TK-10. 2140

Recall the reported GI50 of COc1cccc(Oc2ccccc2NC(=O)CNC(=O)c2cccc3ccccc23)c1 when tested on TK-10. 1580

Recall the reported GI50 of O=C(CNC(=O)c1cccc2ccccc12)Nc1ccccc1Oc1ccccc1 when tested on TK-10. 617
